# target desc: Human recombinant PDE3A (hPDE3A) (Homo sapiens)
# Construct: purchased Scottish Biomedical; host or cells: Sf9 insect cells
# Sequence (Q14432 whole entry): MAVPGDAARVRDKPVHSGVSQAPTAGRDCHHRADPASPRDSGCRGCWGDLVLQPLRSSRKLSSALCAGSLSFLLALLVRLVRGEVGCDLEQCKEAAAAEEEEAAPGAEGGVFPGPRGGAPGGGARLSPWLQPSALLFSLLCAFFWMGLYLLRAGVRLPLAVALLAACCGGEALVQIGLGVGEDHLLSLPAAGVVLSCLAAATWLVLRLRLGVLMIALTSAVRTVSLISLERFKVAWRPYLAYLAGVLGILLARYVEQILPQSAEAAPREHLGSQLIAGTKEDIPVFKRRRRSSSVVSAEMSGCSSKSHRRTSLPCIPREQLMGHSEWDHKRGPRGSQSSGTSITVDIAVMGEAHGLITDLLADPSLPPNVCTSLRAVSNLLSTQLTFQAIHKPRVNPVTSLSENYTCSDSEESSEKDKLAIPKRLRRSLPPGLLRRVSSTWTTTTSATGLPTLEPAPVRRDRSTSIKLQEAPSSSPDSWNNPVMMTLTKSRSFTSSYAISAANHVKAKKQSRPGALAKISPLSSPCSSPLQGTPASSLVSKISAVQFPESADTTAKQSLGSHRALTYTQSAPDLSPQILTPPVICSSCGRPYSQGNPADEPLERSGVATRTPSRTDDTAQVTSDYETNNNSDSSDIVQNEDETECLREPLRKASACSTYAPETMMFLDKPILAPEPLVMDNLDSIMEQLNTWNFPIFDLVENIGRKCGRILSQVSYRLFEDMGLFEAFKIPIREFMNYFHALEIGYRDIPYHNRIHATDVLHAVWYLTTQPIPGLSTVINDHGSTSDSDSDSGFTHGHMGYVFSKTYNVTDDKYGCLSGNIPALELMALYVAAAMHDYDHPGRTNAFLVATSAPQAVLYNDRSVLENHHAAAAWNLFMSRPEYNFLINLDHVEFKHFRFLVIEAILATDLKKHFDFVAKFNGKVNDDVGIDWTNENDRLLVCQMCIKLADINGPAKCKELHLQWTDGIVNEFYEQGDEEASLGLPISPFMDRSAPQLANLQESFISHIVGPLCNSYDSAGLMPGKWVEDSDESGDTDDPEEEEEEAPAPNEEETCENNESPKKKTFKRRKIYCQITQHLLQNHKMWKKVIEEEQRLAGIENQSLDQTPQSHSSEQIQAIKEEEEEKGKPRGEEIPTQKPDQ
# experiment description: In vitro assay PDE3A (SPA, 3H-cAMP hydrolysis);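 also: the method names PDE3A and the table heading PDE3B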
# Format: biochemical
# measurement setup: hPDE3B pIC50; read-out: pIC50 (converted)
Mark Yes only when IC50 stays strictly below 3 µM. Values equal to the cut-off are No.

> print(dat)
                                   molecule  assigned.label
1  C[C@@H]1CCN(C(=O)c2ccn3cccc3c2)C[C@H]1c1cc(C(F)F)nc2ncnn12 [Compound 90]             Yes
2  Cc1cc(C(=O)N2CC[C@@H](C)[C@H](c3cc(C(F)F)nc4ncnn34)C2)cc(OC(C)C)n1 [Compound 107]              No
3  Cc1cc(C(=O)N2[C@H]3CC[C@H](c4cc(C(F)F)nc5ncnn45)[C@@H]2CC3)cc(C)c1C#N [Compound 299]              No
4  COc1ccc(C(=O)N2[C@H]3CC[C@H](c4cc(C(F)F)nc5ncnn45)[C@@H]2CC3)cc1OC [Compound 364]              No
5  C[C@@H]1CCN(C(=O)c2ccc(Cl)c(OC(F)F)c2)C[C@H]1c1cc(C(F)F)nc2ncnn12 [Compound 121]             Yes
6  C[C@@H]1CCN(C(=O)c2cn(C)cn2)C[C@H]1c1cc(C(F)F)nc2ncnn12 [Compound 58]              No
7  Cc1cc([C@@H]2CN(C(=O)c3cc(C)c(C)cn3)CC[C@H]2C)n2ncnc2n1 [Compound 3a]              No
